Data provenance: patent US20130096107A1

measurement-target: BACE2 (Homo sapiens)
Lab note: cut-off is 3 µM. Strictly less in IC50 is MET. Exactly 3 µM or more is NOT MET.

compound-structure-string | measurement-target | label
CC[C@@]1(c2cc(NC(=O)c3ccccn3)ccc2F)CCSC(N)=N1 | BACE2 (Homo sapiens) | MET
CC[C@@]1(c2cc(NC(=O)c3ncccc3-c3ccccc3)ccc2F)CCSC(N)=N1 | BACE2 (Homo sapiens) | NOT MET
CC[C@@]1(c2cc(NC(=O)c3cc(Cl)ccn3)ccc2F)CCSC(N)=N1 | BACE2 (Homo sapiens) | NOT MET
CC[C@@]1(c2cc(NC(=O)c3csc(C)n3)ccc2F)CCSC(N)=N1 | BACE2 (Homo sapiens) | NOT MET

###

measurement-target: BACE2 (Homo sapiens, UniProt Q9Y5Z0)
Construct: BACE2 enzyme ectodomain (derived from plasmid “pET17b-T7-hu proBACE2”); T7 tag; made in house; a pET17b plasmid implies E. coli (own knowledge)
Sequence (Q9Y5Z0 63-473 limits assumed): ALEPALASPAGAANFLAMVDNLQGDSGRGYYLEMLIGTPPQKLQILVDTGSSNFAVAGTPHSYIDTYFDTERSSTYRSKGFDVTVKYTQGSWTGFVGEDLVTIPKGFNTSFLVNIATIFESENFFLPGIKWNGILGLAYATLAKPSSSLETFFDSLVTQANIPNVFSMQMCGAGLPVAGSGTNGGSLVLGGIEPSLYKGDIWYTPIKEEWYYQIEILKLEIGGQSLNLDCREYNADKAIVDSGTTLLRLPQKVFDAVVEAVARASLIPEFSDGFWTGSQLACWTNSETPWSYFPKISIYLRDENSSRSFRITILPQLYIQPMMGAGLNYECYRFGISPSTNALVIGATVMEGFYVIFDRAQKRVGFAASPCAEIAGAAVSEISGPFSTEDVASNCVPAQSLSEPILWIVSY
test-details: Immunofluorescence Resonance Energy Transfer (FRET) assay for BACE2 inhibition
Type: biochemical
condition-summary: pH 4.5; 5 μM TMEM27-based FRET peptide substrate
Quick reference for IC50 among some compounds

compound | IC50 (nM)
CC[C@@]1(c2cc(NC(=O)c3ccc(C)s3)ccc2F)CCSC(N)=N1 [Example 16] | 667
CC[C@@]1(c2cc(NC(=O)c3cccc(C)n3)ccc2F)CCSC(N)=N1 [Example 10] | 50900
CC[C@@]1(c2cc(NC(=O)c3ccn(C)n3)ccc2F)CCSC(N)=N1 [Example 17] | 2140
CC[C@@]1(c2cc(NC(=O)c3ccc(Cl)cc3)ccc2F)CCSC(N)=N1 [Example 4] | 2700
